assay: Partitioning in 1-octanol/PBS system; assay type: physicochemical
Readout Name: logD at 4 h
Provide a numeric answer; units are not to be included.

# compound CC(=O)O[C@H]1C(=O)[C@@]2(C)[C@H]([C@H](OC(=O)c3ccccc3)[C@]3(O)C[C@H](OC(=O)[C@H](O)[C@@H](NC(=O)c4ccccc4)c4ccccc4)C(C)=C1C3(C)C)[C@]1(OC(C)=O)CO[C@@H]1C[C@@H]2O [PTX, paclitaxel, reference compound] ; its logD at 4 h = 1

FYI, the data here is from patent US20220047773A1.
